// data source = patent US20260062422A1

test system: T47D cells; assay: Cellular growth inhibition assay for T47D cells, CellTiter-Glo; type: cell-based, human; settings: 72 hours treatment, CellTiter-Glo 2.0 cell viability
Each record here notes measured GI50.

Please review the entries below; each comes with its answer.
compound: Cc1sc2c(c1C)C(c1ccc(CC3CC(C4CCCN(c5ncc(C(=O)N[C@H]6C(C)(C)[C@H](Oc7ccc(C#N)c(Cl)c7)C6(C)C)cn5)C4)C3)cc1)=N[C@@H](C)c1nnc(C)n1-2 (stereo partly shown) [Compound I-489]
measure-name: GI50
meas-value: < 500 nM
//
compound: Cc1sc2c(c1C)C(c1ccc(N3CC(C4CCC(Cc5ncc(C(=O)N[C@H]6C(C)(C)[C@H](Oc7ccc(C#N)c(Cl)c7)C6(C)C)cn5)CC4)C3)cc1)=N[C@@H](Cc1ncco1)c1nnc(C)n1-2 (stereo partly shown) [Compound I-543]
measure-name: GI50
meas-value: > 3000 nM
//
compound: Cc1sc2c(c1C)C(c1ccc([C@H]3C[C@H]([C@@H]4CCCN(c5ncc(C(=O)N[C@H]6C(C)(C)[C@H](Oc7ccc(C#N)c(Cl)c7)C6(C)C)cn5)C4)C3)cc1)=N[C@@H](Cc1ncco1)c1nnc(C)n1-2 [Compound I-423]
measure-name: GI50
meas-value: 500 to 1500 nM

Pending compound:
Data point: Cc1sc2c(c1C)C(c1ccc(C(=O)N3CCC[C@@H](Cc4ncc(C(=O)N[C@H]5C(C)(C)[C@H](Oc6ccc(C#N)c(Cl)c6)C5(C)C)cn4)C3)cc1)=N[C@@H](Cc1ncco1)c1nnc(C)n1-2 [Compound I-319] ; GI50 = > 3000 nM
